Source of measurements: ChEMBL document CHEMBL1201862

# subject.of.test: Fatty acid synthase (Homo sapiens)
# Sequence (P49327 whole entry, the tested form may be a part): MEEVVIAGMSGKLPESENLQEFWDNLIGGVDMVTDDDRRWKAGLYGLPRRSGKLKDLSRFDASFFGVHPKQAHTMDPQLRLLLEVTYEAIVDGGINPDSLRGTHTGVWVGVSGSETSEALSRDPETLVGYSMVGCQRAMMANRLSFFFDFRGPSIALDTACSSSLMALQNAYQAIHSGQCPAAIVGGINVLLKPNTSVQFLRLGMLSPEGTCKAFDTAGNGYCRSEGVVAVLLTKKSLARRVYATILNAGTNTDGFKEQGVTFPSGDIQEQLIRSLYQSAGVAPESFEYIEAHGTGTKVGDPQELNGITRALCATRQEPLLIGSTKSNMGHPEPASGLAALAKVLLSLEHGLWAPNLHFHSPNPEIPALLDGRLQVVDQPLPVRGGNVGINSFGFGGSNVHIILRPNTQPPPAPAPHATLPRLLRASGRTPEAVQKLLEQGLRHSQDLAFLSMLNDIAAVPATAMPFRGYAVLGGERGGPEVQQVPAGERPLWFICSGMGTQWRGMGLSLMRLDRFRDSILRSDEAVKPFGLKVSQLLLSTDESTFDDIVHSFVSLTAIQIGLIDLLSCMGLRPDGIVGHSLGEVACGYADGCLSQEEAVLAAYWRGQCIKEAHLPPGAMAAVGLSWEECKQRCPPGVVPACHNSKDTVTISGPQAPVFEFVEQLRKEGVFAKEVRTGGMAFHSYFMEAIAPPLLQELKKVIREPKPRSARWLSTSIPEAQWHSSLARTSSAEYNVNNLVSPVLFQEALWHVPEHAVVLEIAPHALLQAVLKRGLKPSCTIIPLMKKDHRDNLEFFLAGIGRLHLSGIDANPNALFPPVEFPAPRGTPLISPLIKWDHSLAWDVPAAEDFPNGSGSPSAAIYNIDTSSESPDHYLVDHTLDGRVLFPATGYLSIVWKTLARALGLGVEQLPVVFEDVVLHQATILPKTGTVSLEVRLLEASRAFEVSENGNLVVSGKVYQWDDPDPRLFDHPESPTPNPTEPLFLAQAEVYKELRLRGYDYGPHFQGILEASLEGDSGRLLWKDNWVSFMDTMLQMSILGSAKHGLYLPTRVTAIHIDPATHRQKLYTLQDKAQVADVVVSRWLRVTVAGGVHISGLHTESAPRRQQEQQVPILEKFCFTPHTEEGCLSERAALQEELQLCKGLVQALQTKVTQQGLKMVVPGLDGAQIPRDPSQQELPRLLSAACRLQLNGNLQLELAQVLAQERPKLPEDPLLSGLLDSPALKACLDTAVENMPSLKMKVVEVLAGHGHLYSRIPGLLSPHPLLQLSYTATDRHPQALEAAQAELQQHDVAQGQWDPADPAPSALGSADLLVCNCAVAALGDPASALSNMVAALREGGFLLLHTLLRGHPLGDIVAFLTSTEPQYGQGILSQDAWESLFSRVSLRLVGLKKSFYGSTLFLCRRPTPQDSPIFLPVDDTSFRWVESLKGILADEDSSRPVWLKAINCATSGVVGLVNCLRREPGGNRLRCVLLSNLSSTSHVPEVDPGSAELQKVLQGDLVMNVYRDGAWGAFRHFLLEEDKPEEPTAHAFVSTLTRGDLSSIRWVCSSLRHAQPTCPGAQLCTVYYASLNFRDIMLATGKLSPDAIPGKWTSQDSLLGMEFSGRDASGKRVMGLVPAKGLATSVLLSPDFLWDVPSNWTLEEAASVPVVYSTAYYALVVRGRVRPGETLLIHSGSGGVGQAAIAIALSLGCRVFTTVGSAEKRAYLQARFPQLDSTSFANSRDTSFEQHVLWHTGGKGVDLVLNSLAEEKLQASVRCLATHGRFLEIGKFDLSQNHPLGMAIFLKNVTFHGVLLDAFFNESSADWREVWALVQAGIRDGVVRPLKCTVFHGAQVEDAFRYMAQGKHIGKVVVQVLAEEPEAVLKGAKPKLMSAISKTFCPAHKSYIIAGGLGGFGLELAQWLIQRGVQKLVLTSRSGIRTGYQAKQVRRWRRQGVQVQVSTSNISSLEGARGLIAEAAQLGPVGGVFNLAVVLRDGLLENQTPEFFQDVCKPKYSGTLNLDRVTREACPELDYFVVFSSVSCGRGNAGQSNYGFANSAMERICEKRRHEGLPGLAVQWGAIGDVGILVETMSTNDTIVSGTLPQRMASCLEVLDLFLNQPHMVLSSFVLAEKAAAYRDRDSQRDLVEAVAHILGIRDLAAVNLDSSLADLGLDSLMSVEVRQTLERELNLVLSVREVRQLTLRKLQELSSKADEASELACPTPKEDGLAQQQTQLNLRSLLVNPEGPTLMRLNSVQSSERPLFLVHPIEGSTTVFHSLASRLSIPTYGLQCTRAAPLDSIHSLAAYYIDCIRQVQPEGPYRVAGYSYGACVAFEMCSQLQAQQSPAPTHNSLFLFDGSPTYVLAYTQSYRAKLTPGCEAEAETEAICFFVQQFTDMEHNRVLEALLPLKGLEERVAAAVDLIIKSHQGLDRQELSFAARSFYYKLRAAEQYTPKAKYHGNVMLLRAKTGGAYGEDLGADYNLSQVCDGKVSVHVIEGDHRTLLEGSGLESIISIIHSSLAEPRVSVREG
# method.description: FAS thioesterase domain inhibitors, dose response, biochemical, kinetic fluorescence intensity (AID 624326);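 also: rate of fluorescence rise from hydrolysis of a fluorogenic O-methyl fluorescein ester substrate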
# Format: functional
Active and inactive are the calls of the source. Rule as the data show it: active = IC50 of 20 µM or less and inactive = more.
endpoint: IC50

The examples below pair each entry with its known result.
C=CCN1C(=O)/C(=C/c2ccc(OC(C)=O)c(OCC)c2[N+](=O)[O-])SC1=S = 2.87 µM (active)
CCc1ccc(S(=O)(=O)c2nnn3c2nc(N2CCOCC2)c2ccccc23)cc1 = 6.03 µM (active)
O=C(N/N=C/c1cc([N+](=O)[O-])ccc1O)/C(=C\c1cccs1)NC(=O)c1ccccc1 = 13.8 µM (active)
COc1cccc(NC(=O)COc2c(F)c(F)c(C(F)(F)F)c(F)c2F)c1 = 10.5 µM (active)
CCOC(=O)C1CCN(C(=O)COC(=O)c2cc([N+](=O)[O-])ccc2N2CCOCC2)CC1 = 7.1 µM (active)

List IC50 for every entry below, keeping the order given.
1. O=S(=O)(c1cccs1)N1CCN(Cc2nc(O)c3cc(Br)cc(Br)c3n2)CC1
2. O=[N+]([O-])c1c(Nc2ccc(O)cc2)cc(Cl)c2nonc12
3. N#Cc1ccc(CSc2ccc(S(=O)(=O)N3CCCC3)cn2)cc1
4. CCCCCC(=O)OCc1ccc(C2=CC(=O)CC(C)(C)C2=O)cc1
5. O=C(/C=C/c1cc([N+](=O)[O-])ccc1OC(F)F)NCc1ccc(Cl)cc1
6. O=C(CN(c1ccc(Cl)cc1)S(=O)(=O)c1ccccc1)N/N=C/c1ccco1

Response:
1: 9.03 µM (active); 2: 4.41 µM (active); 3: 6.67 µM (active); 4: 6.78 µM (active); 5: 0.413 µM (active); 6: 6.94 µM (active)
